The values you see were collected from patent US7087375B1.

Tested on: HXB2 site-directed mutant M41L, T215Y
Format: cell-based
Details: virus M41L
I'd be grateful if you could share measured Fold resistance in IC50 relative to HXB2 for these entries.
Answers are plain numbers, in fold.

Reference set, count: 4
Nc1ccn([C@@H]2CS[C@H](CO)O2)c(=O)n1 ... 1.0
Cc1cn([C@H]2C=C[C@@H](CO)O2)c(=O)[nH]c1=O ... 2.6
Nc1nc(NC2CC2)c2ncn([C@H]3C=C[C@@H](CO)C3)c2n1 ... 4.4
O=c1[nH]cnc2c1ncn2[C@H]1CC[C@@H](CO)O1 ... 0.9

// below: Fold resistance in IC50 relative to HXB2 requested for another compound
Which Fold resistance in IC50 relative to HXB2 is reported for this compound? Nc1ccn([C@H]2CC[C@@H](CO)O2)c(=O)n1
2.5

----------
Tested on: HXB2 site-directed mutant D67N, K70R
Format: cell-based
Conditions: virus D67N
I'd be grateful if you could share measured Fold resistance in IC50 relative to HXB2 for these entries.

Reference set, count: 4
Nc1ccn([C@@H]2CS[C@H](CO)O2)c(=O)n1 ... 1.2 fold
Nc1ccn([C@H]2CC[C@@H](CO)O2)c(=O)n1 ... 1.3 fold
O=c1[nH]cnc2c1ncn2[C@H]1CC[C@@H](CO)O1 ... 0.3 fold
Cc1cn([C@H]2C=C[C@@H](CO)O2)c(=O)[nH]c1=O ... 5.1 fold

Which Fold resistance in IC50 relative to HXB2 is reported for this molecule? Nc1nc(NC2CC2)c2ncn([C@H]3C=C[C@@H](CO)C3)c2n1
1.8 fold

----------
Tested on: HXB2 site-directed mutant M41L, T69S-AG, T215Y
Format: cell-based
Details: virus M41L
endpoint-label: Fold resistance in IC50 relative to HXB2 (fold)
Answers are plain numbers, in fold.

Cc1cn([C@H]2C=C[C@@H](CO)O2)c(=O)[nH]c1=O [d4T, stavudine] ... 3.1
O=c1[nH]cnc2c1ncn2[C@H]1CC[C@@H](CO)O1 [ddI, didanosine] ... 6.5
Nc1nc(NC2CC2)c2ncn([C@H]3C=C[C@@H](CO)C3)c2n1 [Abacavir, abacavir] ... 12.0

Return reported Fold resistance in IC50 relative to HXB2 values for all items listed beneath this line.
1. Nc1ccn([C@H]2CC[C@@H](CO)O2)c(=O)n1 [ddC, zalcitabine]
2. Nc1ccn([C@@H]2CS[C@H](CO)O2)c(=O)n1 [3TC, lamivudine]

2.5
6.1

----------
Tested on: HXB2 site-directed mutant M41L, T69S-SS, T215Y
Type: cell-based
Details: virus M41L
endpoint-label: Fold resistance in IC50 relative to HXB2 (fold)
Give bare numbers, in fold.

O=c1[nH]cnc2c1ncn2[C@H]1CC[C@@H](CO)O1 [ddI, didanosine] ... 2.5

Return reported Fold resistance in IC50 relative to HXB2 values for all items listed beneath this line.
1. Cc1cn([C@H]2C=C[C@@H](CO)O2)c(=O)[nH]c1=O [d4T, stavudine]
2. Nc1ccn([C@H]2CC[C@@H](CO)O2)c(=O)n1 [ddC, zalcitabine]
3. Nc1ccn([C@@H]2CS[C@H](CO)O2)c(=O)n1 [3TC, lamivudine]
4. Nc1nc(NC2CC2)c2ncn([C@H]3C=C[C@@H](CO)C3)c2n1 [Abacavir, abacavir]

[7.1, 1.5, 4.3, 4.6]
